assay comment: Half life in Sprague-Dawley rat
Assay type: ADME, organism-based
test settings: in vivo
metric: half-life
Please give the number followed by its unit.

[ask] So what's the measured half-life for this one? CC(=O)Nc1nc(C(CCN2CCC(c3ccccc3)CC2)C(=O)NCc2cc(C(F)(F)F)cc(C(F)(F)F)c2)cs1 (stereo unspecified)
[reply] 1.4 h

###

assay comment: Clearance in Sprague-Dawley rat
Format: ADME, organism-based
test settings: in vivo
metric: clearance (mL/min/kg)
Answers are plain numbers, in mL/min/kg.

[ask] So what's the measured clearance for this one? CC(=O)Nc1nc(C(CCN2CCC(c3ccccc3)CC2)C(=O)NCc2cc(C(F)(F)F)cc(C(F)(F)F)c2)cs1 (stereo unspecified)
[reply] 52.5

###

assay comment: Tmax in Beagle dog
Format: ADME, organism-based, Canis lupus familiaris
test settings: in vivo
metric: Tmax
Please give the number followed by its unit.

[ask] So what's the measured Tmax for this one? CC(=O)Nc1nc(C(CCN2CCC(c3ccccc3)CC2)C(=O)NCc2cc(C(F)(F)F)cc(C(F)(F)F)c2)cs1 (stereo unspecified)
[reply] 30 min

###

experimental target: C-C chemokine receptor type 2 (Homo sapiens)
assay comment: Displacement of [125I]MCP1 from human CCR2 expressed in monocytes
metric: IC50 (nM)
Give bare numbers, in nM.

Before answering, review these 6 worked examples.
[ask] So what's the measured IC50 for this one? CC(C)(C)OC(=O)Nc1nc([C@H](CCN2CCC(c3ccccc3)CC2)C(=O)NCc2cc(C(F)(F)F)cc(C(F)(F)F)c2)cs1
[reply] 14.3

[ask] So what's the measured IC50 for this one? COC(=O)Nc1nc([C@H](CCN2CCC(c3ccccc3)CC2)C(=O)NCc2cc(C(F)(F)F)cc(C(F)(F)F)c2)cs1
[reply] 3.5

[ask] So what's the measured IC50 for this one? C[C@H]1CN(CCC(C(=O)NCc2cc(C(F)(F)F)cc(C(F)(F)F)c2)c2csc(NC(=O)Cc3ccccc3)n2)CC[C@]12C=Cc1ccccc12 (some centres not stated)
[reply] 19

[ask] So what's the measured IC50 for this one? C[C@H]1CN(CCC(C(=O)NCc2cc(C(F)(F)F)cc(C(F)(F)F)c2)c2csc(N)n2)CCC12C=Cc1ccccc12 (some centres not stated)
[reply] 1.3

[ask] So what's the measured IC50 for this one? CN(C)C(=O)Nc1nc(C(CCN2CCC(c3ccccc3)CC2)C(=O)NCc2cc(C(F)(F)F)cc(C(F)(F)F)c2)cs1 (configuration not stated)
[reply] 2.3

[ask] So what's the measured IC50 for this one? CNC(=O)Nc1nc([C@H](CCN2CCC(c3ccccc3)CC2)C(=O)NCc2cc(C(F)(F)F)cc(C(F)(F)F)c2)cs1
[reply] 0.43

# evaluate next
[ask] So what's the measured IC50 for this one? Nc1nc(C(CCN2CCC3(C=Cc4ccccc43)CC2)C(=O)NCc2cc(C(F)(F)F)cc(C(F)(F)F)c2)cs1 (configuration not stated)
[reply] 7.3

###

experimental target: C-C chemokine receptor type 2 (Homo sapiens, UniProt P41597)
Sequence (P41597 whole entry): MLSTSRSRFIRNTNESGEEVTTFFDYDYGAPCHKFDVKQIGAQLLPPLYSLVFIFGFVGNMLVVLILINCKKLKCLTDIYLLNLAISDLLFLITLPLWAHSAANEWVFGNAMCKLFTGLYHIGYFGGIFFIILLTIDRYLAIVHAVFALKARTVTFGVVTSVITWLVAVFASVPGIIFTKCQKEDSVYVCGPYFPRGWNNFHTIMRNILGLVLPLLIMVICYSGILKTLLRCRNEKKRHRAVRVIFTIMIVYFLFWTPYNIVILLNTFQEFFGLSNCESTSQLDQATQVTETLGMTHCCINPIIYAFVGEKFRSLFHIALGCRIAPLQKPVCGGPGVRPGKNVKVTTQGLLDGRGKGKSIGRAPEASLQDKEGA
assay comment: Displacement of [125I]MCP1 from human CCR2 expressed in monocytes
metric: pIC50
Give bare numbers, as −log10 of the molar value.

Before answering, review these 2 worked examples.
[ask] So what's the measured pIC50 for this one? CC(=O)Nc1nc(C(CCN2CCC(c3ccc(F)cc3)CC2)C(=O)NCc2cc(C(F)(F)F)cc(C(F)(F)F)c2)cs1 (stereo not given)
[reply] 8.74

[ask] So what's the measured pIC50 for this one? CC(C(=O)Nc1nc(C(CCN2CC[C@]3(C=Cc4ccccc43)[C@@H](C)C2)C(=O)NCc2cc(C(F)(F)F)cc(C(F)(F)F)c2)cs1)c1ccccc1 (stereo not given in full)
[reply] 7.13

// input: 7 compounds below; output: pIC50 for each
1. O=C(Nc1nc(C(CCN2CCC(c3ccccc3)CC2)C(=O)NCc2cc(C(F)(F)F)cc(C(F)(F)F)c2)cs1)C1CC1 (stereo not given)
2. C[C@H]1CN(CCC(C(=O)NCc2cc(C(F)(F)F)cc(C(F)(F)F)c2)c2csc(NC(=O)Cc3cccs3)n2)CC[C@]12C=Cc1ccccc12 (stereo not given in full)
3. O=CNc1nc(C(CCN2CCC(c3ccccc3)CC2)C(=O)NCc2cc(C(F)(F)F)cc(C(F)(F)F)c2)cs1 (stereo not given)
4. CC(=O)Nc1nc(C(CCN2CCCCC2)C(=O)NCc2cc(C(F)(F)F)cc(C(F)(F)F)c2)cs1 (stereo not given)
5. N=C(N)Nc1nc(C(CCN2CCC(c3ccccc3)CC2)C(=O)NCc2cc(C(F)(F)F)cc(C(F)(F)F)c2)cs1 (stereo not given)
6. Nc1nc(C(CCN2CCC(c3ccccc3)CC2)C(=O)NCc2cc(C(F)(F)F)cc(C(F)(F)F)c2)cs1 (stereo not given)
7. CC(=O)Nc1nc(C(CCN2CCN(c3ccccc3C)CC2)C(=O)NCc2cc(C(F)(F)F)cc(C(F)(F)F)c2)cs1 (stereo not given)

[reply]
[8.41, 7.64, 8.40, 7.89, 8.89, 7.70, 7.84]

// input: 6 compounds below; output: pIC50 for each
1. CC(=O)Nc1nc(C(CCN2CCC(c3ccccc3)CC2)C(=O)NCc2cc(C(F)(F)F)cc(C(F)(F)F)c2)cs1 (stereo not given)
2. CC(=O)Nc1nc(C(CCN2CCC(n3cnc4ccccc43)CC2)C(=O)NCc2cc(C(F)(F)F)cc(C(F)(F)F)c2)cs1 (stereo not given)
3. CNC(=O)Nc1nc([C@@H](CCN2CCC3(C=Cc4ccccc43)CC2)C(=O)NCc2cc(C(F)(F)F)cc(C(F)(F)F)c2)cs1
4. O=C(NCc1cc(C(F)(F)F)cc(C(F)(F)F)c1)[C@H](CCN1CCC(c2ccccc2)CC1)c1cscn1
5. CNC(=O)Nc1nc(C(CCN2CCC(c3ccccc3)CC2)C(=O)NCc2cc(C(F)(F)F)cc(C(F)(F)F)c2)cs1 (stereo not given)
6. CC(=O)Nc1nc(C(CCN2CCN(c3ccc(F)cc3)CC2)C(=O)NCc2cc(C(F)(F)F)cc(C(F)(F)F)c2)cs1 (stereo not given)

[reply]
1. 8.28
2. 8.52
3. 8.24
4. 6.64
5. 8.52
6. 7.49

###

assay comment: Volume of distribution in Beagle dog
Assay type: ADME, organism-based, Canis lupus familiaris
test settings: in vivo, read-out: Vdss
metric: Vd (L/kg)
Answers are plain numbers, in L/kg.

[ask] So what's the measured Vd for this one? CC(=O)Nc1nc(C(CCN2CCC(c3ccccc3)CC2)C(=O)NCc2cc(C(F)(F)F)cc(C(F)(F)F)c2)cs1 (stereo unspecified)
[reply] 4

###

experimental target: UniProt:P51683
Sequence (P51683 whole entry): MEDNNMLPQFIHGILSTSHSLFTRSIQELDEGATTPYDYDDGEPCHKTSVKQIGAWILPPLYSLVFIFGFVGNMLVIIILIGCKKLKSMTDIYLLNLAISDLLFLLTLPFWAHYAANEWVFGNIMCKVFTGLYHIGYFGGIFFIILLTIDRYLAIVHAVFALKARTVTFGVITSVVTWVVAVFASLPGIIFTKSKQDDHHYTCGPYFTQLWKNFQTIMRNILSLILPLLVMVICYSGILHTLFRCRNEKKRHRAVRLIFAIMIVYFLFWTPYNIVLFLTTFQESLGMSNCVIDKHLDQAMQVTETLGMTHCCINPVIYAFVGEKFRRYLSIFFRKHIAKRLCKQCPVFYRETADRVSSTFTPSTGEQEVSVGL
assay comment: Displacement of [125I]MCP1 from mouse CCR2 expressed in monocytes
Type: cell-based
Could you please report measured log10(IC50) for the items listed next?
Recorded IC50 (log10, nM)

Before answering, review these 5 worked examples.
[ask] So what's the measured log10(IC50) for this one? C[C@H]1CN(CCC(C(=O)NCc2cc(C(F)(F)F)cc(C(F)(F)F)c2)c2csc(NC(=O)c3cccnc3)n2)CC[C@]12C=Cc1ccccc12 (some centres not stated)
[reply] 2.27

[ask] So what's the measured log10(IC50) for this one? C[C@H]1CN(CCC(C(=O)NCc2cc(C(F)(F)F)cc(C(F)(F)F)c2)c2csc(NC(=O)C3Cc4ccccc43)n2)CC[C@]12C=Cc1ccccc12 (some centres not stated)
[reply] 2.05

[ask] So what's the measured log10(IC50) for this one? C[C@H]1CN(CCC(C(=O)NCc2cc(C(F)(F)F)cc(C(F)(F)F)c2)c2csc(NC(=O)c3ccccc3)n2)CC[C@]12C=Cc1ccccc12 (some centres not stated)
[reply] 2.98

[ask] So what's the measured log10(IC50) for this one? C[C@H]1CN(CCC(C(=O)NCc2cc(C(F)(F)F)cc(C(F)(F)F)c2)c2csc(NC(=O)Cc3ccccc3)n2)CC[C@]12C=Cc1ccccc12 (some centres not stated)
[reply] 2.22

[ask] So what's the measured log10(IC50) for this one? CC(C(=O)Nc1nc(C(CCN2CC[C@]3(C=Cc4ccccc43)[C@@H](C)C2)C(=O)NCc2cc(C(F)(F)F)cc(C(F)(F)F)c2)cs1)c1ccccc1 (some centres not stated)
[reply] 2.71

// input: 2 molecules below; output: log10(IC50) for each
1. C[C@H]1CN(CCC(C(=O)NCc2cc(C(F)(F)F)cc(C(F)(F)F)c2)c2csc(NC(=O)Cc3ccccn3)n2)CC[C@]12C=Cc1ccccc12 (some centres not stated)
2. C[C@H]1CN(CCC(C(=O)NCc2cc(C(F)(F)F)cc(C(F)(F)F)c2)c2csc(NC(=O)Cc3cccs3)n2)CC[C@]12C=Cc1ccccc12 (some centres not stated)

[reply]
[1.90, 1.91]

###

experimental target: C-C chemokine receptor type 2 (Homo sapiens)
assay comment: Displacement of [125I]MCP1 from human CCR2 expressed in monocytes
Could you please report measured IC50 for the items listed next?
Please give the number followed by its unit.

Before answering, review these 6 worked examples.
[ask] So what's the measured IC50 for this one? CC(=O)Nc1nc([C@H](CCN2CCC(c3ccccc3)CC2)C(=O)NCc2cc(C(F)(F)F)cc(C(F)(F)F)c2)cs1
[reply] 1.8 nM

[ask] So what's the measured IC50 for this one? Nc1nc(C(CCN2CCC(c3ccc(F)cc3)CC2)C(=O)NCc2cc(C(F)(F)F)cc(C(F)(F)F)c2)cs1 (configuration not stated)
[reply] 9.1 nM

[ask] So what's the measured IC50 for this one? CC(C)(C)OC(=O)Nc1nc([C@@H](CCN2CCC(c3ccccc3)CC2)C(=O)NCc2cc(C(F)(F)F)cc(C(F)(F)F)c2)cs1
[reply] 13.3 nM

[ask] So what's the measured IC50 for this one? CC(C)C(=O)Nc1nc(C(CCN2CCC(c3ccccc3)CC2)C(=O)NCc2cc(C(F)(F)F)cc(C(F)(F)F)c2)cs1 (configuration not stated)
[reply] 7.4 nM

[ask] So what's the measured IC50 for this one? C[C@H]1CN(CCC(C(=O)NCc2cc(C(F)(F)F)cc(C(F)(F)F)c2)c2csc(NC(=O)c3cccnc3)n2)CC[C@]12C=Cc1ccccc12 (some centres not stated)
[reply] 14 nM

[ask] So what's the measured IC50 for this one? C[C@H]1CN(CCC(C(=O)NCc2cc(C(F)(F)F)cc(C(F)(F)F)c2)c2csc(NC(=O)Cc3ccccn3)n2)CC[C@]12C=Cc1ccccc12 (some centres not stated)
[reply] 13 nM

# evaluate next
[ask] So what's the measured IC50 for this one? CNC(=O)Nc1nc([C@@H](CCN2CCC(c3ccccc3)CC2)C(=O)NCc2cc(C(F)(F)F)cc(C(F)(F)F)c2)cs1
[reply] 30 nM
